FYI, the data here is from paper PMC5540273.

Test system: DAPK2;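 note: KINOMEscan kinase panel screen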
Conditions: concentration: 1 μM, replicates: in singlicate; n = 1
MEASUREMENT_NAME: %Inh (%)
Just the number in %, nothing appended.

{"COMPOUND": "COc1cc2ncn(-c3cc(OCCCc4ccccc4)c(C(N)=O)s3)c2cc1OC", "UNIT_SYMBOL": "%", "%Inh": 26}
{"COMPOUND": "O=C(NCCNc1ccnc(Nc2ccc(F)cc2)n1)Nc1ccc2c(c1)OCO2", "UNIT_SYMBOL": "%", "%Inh": 8}
{"COMPOUND": "Nc1ncnc2c1ncn2-c1ccc(Cl)cc1", "UNIT_SYMBOL": "%", "%Inh": 0}
{"COMPOUND": "Cc1ccc(Oc2ccc(Nc3ncnc4cc[nH]c34)cc2C)cn1", "UNIT_SYMBOL": "%", "%Inh": 0}

// next entry
// lookup %Inh for Cc1cccc(-c2cc(-c3c[nH]nc3-c3ccccn3)ccn2)c1
0
